Measured values drawn from patent US20230106715A1 for this set.

- MEASURED ON: T1, cynomolgus monkey Siglec15-his protein (cynomolgus monkey)
- T1 construct: In house made; also called Cynomolgus Siglec15-his; cynomolgus Siglec15
- T1 chain: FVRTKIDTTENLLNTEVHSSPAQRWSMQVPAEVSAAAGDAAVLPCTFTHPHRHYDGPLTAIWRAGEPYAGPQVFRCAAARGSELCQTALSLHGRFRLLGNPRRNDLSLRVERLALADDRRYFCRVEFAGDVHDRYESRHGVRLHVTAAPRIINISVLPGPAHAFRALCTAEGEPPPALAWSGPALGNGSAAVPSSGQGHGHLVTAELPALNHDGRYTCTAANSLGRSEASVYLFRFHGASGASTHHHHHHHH
- ASSAY NOTES: SPR Biacore T200, antibody captured by anti-human IgG, antigen as analyte, 1:1 fit
ASSAY METRIC: kon (M⁻¹ s⁻¹)
Write it as a number; the unit M⁻¹ s⁻¹ goes unstated.

Measured kon, A2A5C7E8-3 (antibody, human IgG1, kappa, V domains shown, Variant of A2A5C7E8 modified in VH CDR2 (X2 = K)) VH: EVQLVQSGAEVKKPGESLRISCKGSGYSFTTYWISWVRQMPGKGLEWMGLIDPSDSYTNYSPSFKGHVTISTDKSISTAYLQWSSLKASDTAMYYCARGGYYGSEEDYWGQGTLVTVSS VL: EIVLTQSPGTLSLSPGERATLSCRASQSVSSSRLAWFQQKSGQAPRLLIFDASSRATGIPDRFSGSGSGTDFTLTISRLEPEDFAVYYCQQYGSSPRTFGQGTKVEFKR : 708000

Measured kon, anti-Siglec15 benchmark (ch5G12) (antibody, human IgG1, kappa, V domains shown, ch5G12 (US 20190202912A1); also called BM; Siglec15-ch5G9) VH: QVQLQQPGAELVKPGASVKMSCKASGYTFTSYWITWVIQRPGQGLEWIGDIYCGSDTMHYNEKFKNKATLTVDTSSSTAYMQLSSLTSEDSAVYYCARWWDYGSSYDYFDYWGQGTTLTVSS VL: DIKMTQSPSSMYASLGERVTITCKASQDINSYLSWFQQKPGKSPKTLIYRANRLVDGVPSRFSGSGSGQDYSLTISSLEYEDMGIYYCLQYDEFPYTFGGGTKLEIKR : 1.13e+06

Measured kon, A2A5C7E8 (antibody, V domains shown, Fully human antibody from transgenic mouse hybridoma; also called A2A5C7E8-1) VH: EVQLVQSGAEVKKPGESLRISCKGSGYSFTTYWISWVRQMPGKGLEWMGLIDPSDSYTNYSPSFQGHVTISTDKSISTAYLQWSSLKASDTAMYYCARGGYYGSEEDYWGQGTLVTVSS VL: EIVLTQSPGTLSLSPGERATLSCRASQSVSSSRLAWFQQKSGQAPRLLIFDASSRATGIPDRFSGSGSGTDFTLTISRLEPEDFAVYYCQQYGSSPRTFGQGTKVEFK : 1.13e+06

Measured kon, A2A5C7E8-2 (antibody, human IgG1, kappa, V domains shown, Variant of A2A5C7E8 modified in VH CDR2 (X1 = E)) VH: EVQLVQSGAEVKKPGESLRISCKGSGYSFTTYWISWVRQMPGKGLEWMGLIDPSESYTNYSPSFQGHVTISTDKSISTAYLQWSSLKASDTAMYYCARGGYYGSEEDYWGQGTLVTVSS VL: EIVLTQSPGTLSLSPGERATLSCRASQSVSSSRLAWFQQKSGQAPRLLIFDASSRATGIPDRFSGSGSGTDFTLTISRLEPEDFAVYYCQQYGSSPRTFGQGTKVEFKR : 1.14e+06
